target: HIV Env, isolate CNE30 (HIV); assay: cell-based or functional assay
ASSAY_METRIC: IC80 (µg/ml) with constrains

[[record]]
binder = "ePGDM13 (antibody, V domains shown) VH: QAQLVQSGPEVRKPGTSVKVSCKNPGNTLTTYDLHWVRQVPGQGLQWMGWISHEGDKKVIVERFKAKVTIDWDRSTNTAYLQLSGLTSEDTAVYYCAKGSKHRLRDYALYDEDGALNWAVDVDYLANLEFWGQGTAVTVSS VL: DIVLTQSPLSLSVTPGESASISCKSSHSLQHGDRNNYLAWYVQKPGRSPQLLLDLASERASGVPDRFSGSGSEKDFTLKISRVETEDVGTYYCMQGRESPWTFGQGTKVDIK"
test_result = "> 100 µg/mL"

